Hey, just so you know, these numbers are from the supplement of paper PMC10733146.

Tested on: primary MCL patient cells (S063)
ASSAY SUMMARY: viability relative to DMSO control (fraction); higher = less drug effect (more viable cells)
MEASUREMENT CONDITIONS: 0.008 µM; 48 h
MEASURED ATTRIBUTE: viability
Numbers only.

Sample answers from the record:
COMPOUND	viability
O=C1c2c(O)ccc(O)c2C(=O)c2c(NCCNCCO)ccc(NCCNCCO)c21	1.02
CCc1cnn2c(NCc3ccc[n+]([O-])c3)cc(N3CCCC[C@H]3CCO)nc12	0.0229
Nc1ccc2ncnc(NCCc3ccc(Oc4ccccc4)cc3)c2c1	0.934
Nc1cccc2c1CN(C1CCC(=O)NC1=O)C2=O (stereo unspecified) [Lenalidomide]	1.14
C/C=C1\NC(=O)[C@H]2CSSCC/C=C/[C@H](CC(=O)N[C@H](C(C)C)C(=O)N2)OC(=O)[C@H](C(C)C)NC1=O	0.0338

Could you now look at the following compound, please?
Using known records, supply viability for C=CC(=O)N1CCC[C@@H](n2nc(-c3ccc(Oc4ccccc4)cc3)c3c(N)ncnc32)C1 0.292

---

System: primary FL patient cells (S087)
ASSAY SUMMARY: viability relative to DMSO control (fraction); higher = less drug effect (more viable cells)
MEASUREMENT CONDITIONS: 0.12 µM; 48 h
Kindly state viability for each of the entries shown.
Numbers only.

Field: example entries. Status: answers known.
COMPOUND	viability
CS(=O)(=O)c1ccc(C(=O)Nc2ccc(Cl)c(-c3ccccn3)c2)c(Cl)c1 [Vismodegib]	0.898
Cc1cc(Nc2ncc(Cl)c(Nc3ccccc3S(=O)(=O)C(C)C)n2)c(OC(C)C)cc1C1CCNCC1 [Ceritinib]	0.981
Nc1nc(=S)c2[nH]cnc2[nH]1 [Thioguanin]	0.952

# context switch: different compound, same viability
Name the recorded viability of the compound listed here: CCN1CCN(Cc2ccc(Nc3ncc(F)c(-c4cc(F)c5nc(C)n(C(C)C)c5c4)n3)nc2)CC1 0.934

---

System: primary MCL patient cells (S068)
ASSAY SUMMARY: viability relative to DMSO control (fraction); higher = less drug effect (more viable cells)
MEASUREMENT CONDITIONS: 0.016 µM; 48 h
MEASURED ATTRIBUTE: viability
Numbers only.

Consider the worked cases shown below.
COMPOUND	NUMERIC READOUT
CC(C)c1cc(-c2n[nH]c(=O)n2-c2ccc3c(ccn3C)c2)c(O)cc1O [Ganetespib]	1.13
CN1CC[C@H](c2c(O)cc(O)c3c(=O)cc(-c4ccccc4Cl)oc23)[C@H](O)C1 [Flavopiridol]	0.982
Nc1nc(F)nc2c1ncn2[C@@H]1O[C@H](CO)[C@@H](O)[C@@H]1O [Fludarabine]	1.01

Consider the compound CC1(COc2ccc3c(c2)ncn3-c2ccc3cccc(N4CCC(N)CC4)c3n2)COC1 [Crenolanib] tested on primary MCL patient cells (S068); state its viability. 0.812

---

Tested on: primary AML patient cells (S071)
ASSAY SUMMARY: viability relative to DMSO control (fraction); higher = less drug effect (more viable cells)
MEASUREMENT CONDITIONS: 0.04 µM; 48 h
condition met if viability is below 0.6. condition not met if not; exact matches included in condition not met.

Check out these entries, answers already filled in.
COMPOUND	GROUP LABEL
COc1cccc2c1C(=O)c1c(O)c3c(c(O)c1C2=O)C[C@@](O)(C(C)=O)C[C@@H]3O[C@H]1C[C@H](N)[C@H](O)[C@H](C)O1 [Daunorubicin]	condition met
CCc1cnn2c(NCc3ccc[n+]([O-])c3)cc(N3CCCC[C@H]3CCO)nc12 [Dinaciclib]	condition met
CC(C)C[C@H](NC(=O)CNC(=O)c1cc(Cl)ccc1Cl)B(O)O [Ixazomib]	condition not met

Decide: viability of CC#CC(=O)N1CCC[C@H]1c1nc(-c2ccc(C(=O)Nc3ccccn3)cc2)c2c(N)nccn12 [Acalabrutinib (ACP-196)] strictly below 0.6? condition not met

API: query returns whether the compound falls strictly under 0.6 in viability. Query: Nc1cccc2c1CN(C1CCC(=O)NC1=O)C2=O (stereo not given) [Lenalidomide] condition met

---

System: primary AML patient cells (S002)
ASSAY SUMMARY: viability relative to DMSO control (fraction); higher = less drug effect (more viable cells)
MEASUREMENT CONDITIONS: 0.6 µM; 48 h
Exercise: state measured viability for each of the molecules provided.

See these solved cases before continuing.
MOLECULE	viability
CCN1CCN(Cc2ccc(Nc3ncc(F)c(-c4cc(F)c5nc(C)n(C(C)C)c5c4)n3)nc2)CC1	0.884
N#CC[C@H](C1CCCC1)n1cc(-c2ncnc3[nH]ccc23)cn1 [Ruxolitinib]	0.851
Nc1ncn([C@H]2C[C@H](O)[C@@H](CO)O2)c(=O)n1 [Decitabine (Dacogen)]	0.952

Using the record for C[C@@H](Oc1cc(-c2cnn(C3CCNCC3)c2)cnc1N)c1c(Cl)ccc(F)c1Cl [Crizotinib] , state its measured viability. 1.01

---

Can you tell me viability for the items I'm about to list?
Tested on: primary AML patient cells (S025)
ASSAY SUMMARY: viability relative to DMSO control (fraction); higher = less drug effect (more viable cells)
MEASUREMENT CONDITIONS: 0.12 µM; 48 h
Numbers only.

SUBSTANCE SMILES	viability
N#Cc1ccnc(N2C(=O)CC[C@H]2C(=O)N(c2cncc(F)c2)[C@H](C(=O)NC2CC(F)(F)C2)c2ccccc2Cl)c1	1.06
Nc1nc(Cl)nc2c1ncn2[C@@H]1O[C@H](CO)[C@@H](O)[C@@H]1F	0.46
Nc1nc(=S)c2[nH]cnc2[nH]1	0.751

// next entry
Provide viability value for the following molecule: O=C(c1cc(Cc2n[nH]c(=O)c3ccccc23)ccc1F)N1CCN(C(=O)C2CC2)CC1 0.973

---

System: primary DLBCL patient cells (S082)
ASSAY SUMMARY: viability relative to DMSO control (fraction); higher = less drug effect (more viable cells)
MEASUREMENT CONDITIONS: 3 µM; 48 h
Kindly state viability for each of the entries shown.
Give bare numbers.

Examples with answers:
SUBSTANCE SMILES	viability
Nc1nc(=S)c2[nH]cnc2[nH]1	0.602
O=C(c1cc(Cc2n[nH]c(=O)c3ccccc23)ccc1F)N1CCN(C(=O)C2CC2)CC1	0.817
N#Cc1ccnc(N2C(=O)CC[C@H]2C(=O)N(c2cncc(F)c2)[C@H](C(=O)NC2CC(F)(F)C2)c2ccccc2Cl)c1	1.05
Oc1ccc(/C=C/c2cc(O)cc(O)c2)cc1	0.871

# input for lookup
Please look at this molecule and report its viability: CNC(=O)c1cc(Oc2ccc(NC(=O)Nc3ccc(Cl)c(C(F)(F)F)c3)cc2)ccn1 1.18

---

Please respond with reported viability for every item in the list.
Tested on: primary AML patient cells (S085)
ASSAY SUMMARY: viability relative to DMSO control (fraction); higher = less drug effect (more viable cells)
MEASUREMENT CONDITIONS: 15 µM; 48 h
Numbers only.

# example entries with known answers
SUBSTANCE SMILES	TARGET SYSTEM	MEASURED ATTRIBUTE	NUMERIC READOUT
CCc1nc(C(N)=O)c(Nc2ccc(N3CCC(N4CCN(C)CC4)CC3)c(OC)c2)nc1NC1CCOCC1	primary AML patient cells (S085)	viability	0.756
O=C(Nc1cccc(C(F)(F)F)c1)Nc1cc(S(=O)(=O)NC2CC2)ccc1-c1ccsc1	primary AML patient cells (S085)	viability	0.691
Nc1nc(=S)c2[nH]cnc2[nH]1	primary AML patient cells (S085)	viability	0.24

# batch: return viability for each of the 2 compounds below
1. Cc1cc(Nc2ncc(Cl)c(Nc3ccccc3S(=O)(=O)C(C)C)n2)c(OC(C)C)cc1C1CCNCC1
2. C[C@@H](Oc1cc(-c2cnn(C3CCNCC3)c2)cnc1N)c1c(Cl)ccc(F)c1Cl

1: 0.0171; 2: 0.18

---

Tested on: primary CLL patient cells (S043)
ASSAY SUMMARY: viability relative to DMSO control (fraction); higher = less drug effect (more viable cells)
MEASUREMENT CONDITIONS: 0.4 µM; 48 h
MEASURED ATTRIBUTE: viability
Give bare numbers.

Field: example entries. Status: answers known.
COMPOUND	NUMERIC READOUT
CC1(COc2ccc3c(c2)ncn3-c2ccc3cccc(N4CCC(N)CC4)c3n2)COC1 [Crenolanib]	1.17
CN1CC[C@H](c2c(O)cc(O)c3c(=O)cc(-c4ccccc4Cl)oc23)[C@H](O)C1 [Flavopiridol]	0.265
CC(C)c1cc(C(=O)N2Cc3ccc(CN4CCN(C)CC4)cc3C2)c(O)cc1O [Onalespib]	0.585

# context switch: different compound, same viability
Look up viability of Cc1sc2c(c1C)C(c1ccc(Cl)cc1)=N[C@@H](CC(=O)Nc1ccc(O)cc1)c1nnc(C)n1-2 [OTX015] and report it. 0.9
